# experimental target: human orexin-2 receptor (Homo sapiens (Human), UniProt O43614)
# Sequence (O43614 whole entry): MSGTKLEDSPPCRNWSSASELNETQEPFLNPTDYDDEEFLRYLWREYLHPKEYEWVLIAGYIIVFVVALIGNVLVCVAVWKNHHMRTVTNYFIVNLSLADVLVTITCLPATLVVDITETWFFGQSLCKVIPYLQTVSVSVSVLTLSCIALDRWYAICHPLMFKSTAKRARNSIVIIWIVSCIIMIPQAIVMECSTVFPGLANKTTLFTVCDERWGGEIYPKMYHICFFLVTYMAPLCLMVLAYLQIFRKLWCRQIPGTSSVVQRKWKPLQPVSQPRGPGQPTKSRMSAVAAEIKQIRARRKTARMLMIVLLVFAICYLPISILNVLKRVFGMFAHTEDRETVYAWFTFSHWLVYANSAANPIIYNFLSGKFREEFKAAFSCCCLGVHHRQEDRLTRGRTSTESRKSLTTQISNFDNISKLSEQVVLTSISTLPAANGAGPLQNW
# test: FLIPR Ca2+ Flux Assay, orexin-2 receptor
# condition summary: CHO cells expressing the human orexin-2 receptor; agonist 70 pM Ala-6,12 human orexin-A; read-out: hOX2 FLIPR IC50
pIC50: −log10 of the molar value.
Would you mind labelling by pIC50? At or over 7 is Fulfilled, under is Not fulfilled.

| smiles input | label value |
| --- | --- |
| C[C@@H]1CC[C@@H](c2cc(C(C)(C)O)sn2)CN1C(=O)c1cscc1-c1ncccn1 | Fulfilled |
| COC(=O)c1ccccc1C(=O)N1C[C@H](c2cc(C(C)(C)O)no2)CC[C@H]1C | Not fulfilled |
| C[C@@H]1CC[C@@H](c2cc(C(C)(C)O)no2)CN1C(=O)c1ccccc1C1(C#N)CC1 | Fulfilled |
| C[C@@H]1CC[C@@H](c2cc(C(C)(C)O)sn2)CN1C(=O)c1ccccc1-c1ncccn1 | Fulfilled |
| C[C@@H]1CC[C@@H](c2cc(C(C)(C)O)sn2)CN1C(=O)c1cccnc1OCC(F)F | Fulfilled |
| CCOc1ccccc1C(=O)N1C[C@H](c2cc(C(C)(C)O)on2)CC[C@H]1C | Not fulfilled |
| C[C@@H]1CC[C@@H](c2cc(C(C)(C)O)no2)CN1C(=O)c1ccccc1-n1nccn1 | Fulfilled |

* * *

log10 IC50 listing for selected compounds.
# experimental target: UniProtKB O43614
# test: FLIPR Ca2+ Flux Assay, orexin-2 receptor
# condition summary: CHO cells expressing the human orexin-2 receptor; agonist 70 pM Ala-6,12 human orexin-A; read-out: hOX2 FLIPR IC50
readout type: log10 IC50 (log10 of the value in nM)

| compound | log10 IC50 |
| --- | --- |
| C[C@@H]1CC[C@@H](c2cc(C(C)(O)C3CC3)on2)CN1C(=O)c1ccccc1-n1nccn1 (single isomer, unassigned) [Example 10] | 1.19 |
| C[C@@H]1CC[C@@H](c2cc(C(C)(C)O)sn2)CN1C(=O)c1ccsc1-c1ncccn1 | 1.57 |
| C[C@@H]1CC[C@@H](c2cc(C(C)(C)O)on2)CN1C(=O)c1cc(F)ccc1-n1nccn1 | 2.44 |
| C[C@@H]1CC[C@@H](c2cc(C(C)(C)O)no2)CN1C(=O)c1nccnc1-c1ccccn1 | 3.15 |
| CC(C)C(C)(O)c1cc([C@@H]2CC[C@@H](C)N(C(=O)c3ccccc3-n3nccn3)C2)no1 (single isomer, unassigned) [Example 17] | 1.39 |
| C[C@@H]1CC[C@@H](c2cc(C(C)(C)O)no2)CN1C(=O)c1ccccc1OCC(F)F | 2.15 |
| C[C@@H]1CC[C@@H](c2cc(C(C)(C)O)no2)CN1C(=O)c1cc(Cl)ccc1-n1nccn1 | 2.78 |
| CCOc1ccccc1C(=O)N1C[C@H](c2cc(C(C)(C)O)no2)CC[C@H]1C | 2.25 |
| C[C@@H]1CC[C@@H](c2cc(C(C)(C)O)sn2)CN1C(=O)c1ccc(F)cc1-n1nccn1 | 1.27 |
| C[C@@H]1CC[C@@H](c2cc([C@@H](O)C(F)(F)F)no2)CN1C(=O)c1ccsc1-c1ncccn1 | 2.05 |
| COC(=O)c1ccccc1C(=O)N1C[C@H](c2cc(C(C)(C)O)sn2)CC[C@H]1C | 1.64 |
| C[C@@H]1CC[C@@H](c2cc(C(C)(C)O)sn2)CN1C(=O)c1cscc1-n1nccn1 | 1.32 |
| C[C@@H]1CC[C@@H](c2cc([C@H](O)C(F)(F)F)no2)CN1C(=O)c1ccsc1-n1nccn1 | 2.21 |
| CCOc1ncccc1C(=O)N1C[C@H](c2cc(C(C)(C)O)no2)CC[C@H]1C | 2.43 |
| C[C@@H]1CC[C@@H](c2cc([C@H](O)C(F)(F)F)no2)CN1C(=O)c1ccccc1C1(C#N)CC1 | 1.61 |
| CCC(O)(CC)c1cc([C@@H]2CC[C@@H](C)N(C(=O)c3ccccc3-n3nccn3)C2)no1 | 2.74 |
| C[C@@H]1CC[C@@H](c2cc([C@H](O)C(F)(F)F)no2)CN1C(=O)c1ccccc1-c1ncccn1 | 2.16 |
| CCC(C)(O)c1cc([C@@H]2CC[C@@H](C)N(C(=O)c3ccccc3-n3nccn3)C2)on1 (stereo partly drawn) [Example 55] | 1.60 |
| C[C@@H]1CC[C@@H](c2cc(C(C)(O)C3CC3)on2)CN1C(=O)c1ccccc1-n1nccn1 (single isomer, unassigned) [Example 9] | 1.41 |
| CC(C)Oc1ncccc1C(=O)N1C[C@H](c2cc(C(C)(C)O)on2)CC[C@H]1C | 3.26 |
| C[C@@H]1CC[C@@H](c2cc(C(C)(C)O)no2)CN1C(=O)c1ncccc1-c1ccccc1 | 2.42 |
| C[C@@H]1CC[C@@H](c2cc(C(C)(C)O)no2)CN1C(=O)c1ccccc1-n1ncnn1 | 2.09 |
| C[C@@H]1CC[C@@H](c2cc([C@H](O)C(F)(F)F)no2)CN1C(=O)c1ccccc1-n1ncnn1 | 2.52 |
| C[C@@H]1CC[C@@H](c2cc(C(C)(C)O)no2)CN1C(=O)c1cccnc1-c1ccccc1 | 2.13 |
| C[C@@H]1CC[C@@H](c2cc(C(C)(C)O)no2)CN1C(=O)c1ccccc1C1CC1(F)F (stereo partly drawn) | 1.72 |
| C[C@@H]1CC[C@@H](c2cc(C(C)(C)O)no2)CN1C(=O)c1ccccc1-c1cnccn1 | 3.01 |
| C[C@@H]1CC[C@@H](c2cc(C(C)(C)O)on2)CN1C(=O)c1ccccc1C1(C#N)CC1 | 2.02 |
| CC(C)C(C)(O)c1cc([C@@H]2CC[C@@H](C)N(C(=O)c3ccccc3-n3nccn3)C2)no1 (single isomer, unassigned) [Example 16] | 1.39 |
| CC[C@@](C)(O)c1cc([C@@H]2CC[C@@H](C)N(C(=O)c3ccccc3-n3nccn3)C2)no1 | 1.62 |
| CCC(C)(O)c1cc([C@@H]2CC[C@@H](C)N(C(=O)c3ccccc3-n3nccn3)C2)on1 (stereo partly drawn) [Example 54] | 1.88 |

* * *

# experimental target: human orexin-2 receptor (Homo sapiens (Human), UniProt O43614)
# test: FLIPR Ca2+ Flux Assay, orexin-2 receptor
# condition summary: CHO cells expressing the human orexin-2 receptor; agonist 70 pM Ala-6,12 human orexin-A; read-out: hOX2 FLIPR IC50

| smiles input | value units | IC50 |
| --- | --- | --- |
| C[C@@H]1CC[C@@H](c2cc([C@@H](O)C(F)(F)F)no2)CN1C(=O)c1ccccc1-n1nccn1 | nM | 11 |
| C[C@@H]1CC[C@@H](c2cc(C(C)(C)O)no2)CN1C(=O)c1ccccc1-c1ccccc1 | nM | 22.9 |
| C[C@@H]1CC[C@@H](c2cc(C(C)(C)O)no2)CN1C(=O)c1ccccc1-c1ncccn1 | nM | 51.4 |
| C[C@@H]1CC[C@@H](c2cc(C(C)(C)O)on2)CN1C(=O)c1ccccc1-n1nccn1 | nM | 46.9 |

* * *

# experimental target: human orexin-2 receptor (Homo sapiens (Human))
# test: FLIPR Ca2+ Flux Assay, orexin-2 receptor
# condition summary: CHO cells expressing the human orexin-2 receptor; agonist 70 pM Ala-6,12 human orexin-A; read-out: hOX2 FLIPR IC50
pIC50: −log10 of the molar value.
pIC50 listing for selected compounds.

| compound | pIC50 |
| --- | --- |
| C[C@@H]1CC[C@@H](c2cc([C@@H](O)C(F)(F)F)no2)CN1C(=O)c1ccccc1C1(C#N)CC1 | 7.57 |
| C[C@@H]1CC[C@@H](c2cc([C@@H](O)C(F)(F)F)no2)CN1C(=O)c1ccccc1-c1ncccn1 | 6.96 |
| C[C@@H]1CC[C@@H](c2cc(C(C)(C)O)no2)CN1C(=O)c1ccccc1OCC(F)(F)F | 6.67 |
| C[C@@H]1CC[C@@H](c2cc(C(C)(O)C3CC3)no2)CN1C(=O)c1ccccc1-n1nccn1 (single isomer, unassigned) [Example 52] | 7.33 |
| C[C@@H]1CC[C@@H](c2cc(C(C)(C)O)sn2)CN1C(=O)c1ccccc1-n1ncnn1 | 7.20 |
| C[C@@H]1CC[C@@H](c2cc(C(C)(O)C3CC3)no2)CN1C(=O)c1ccccc1-n1nccn1 (single isomer, unassigned) [Example 53] | 7.46 |
| C[C@@H]1CC[C@@H](c2cc([C@@H](O)C(F)(F)F)no2)CN1C(=O)c1ccccc1-n1ncnn1 | 6.45 |

* * *

# experimental target: human orexin-2 receptor (Homo sapiens (Human), UniProt O43614)
# test: FLIPR Ca2+ Flux Assay, orexin-2 receptor
# condition summary: CHO cells expressing the human orexin-2 receptor; agonist 70 pM Ala-6,12 human orexin-A; read-out: hOX2 FLIPR IC50
# Experimental: In a typical experiment the OX1 and OX2 receptor antagonistic activity of the compounds of the present invention was determined in accordance with the following experimental method. […] Within the Fluorescent Imaging Plate Reader (FLIPR, Molecular Devices), test compounds are added to the plate in a volume of 25 μl, incubated for 5 min and finally 25 μl of agonist is added. […]

| compound | experimental target | IC50, µM |
| --- | --- | --- |
| CC[C@](C)(O)c1cc([C@@H]2CC[C@@H](C)N(C(=O)c3ccccc3-n3nccn3)C2)no1 [Example 12] | human orexin-2 receptor (Homo sapiens (Human), UniProt O43614) | 0.015 |
| C[C@@H]1CC[C@@H](c2cc(C(C)(C)O)sn2)CN1C(=O)c1ccccc1-n1nccn1 [Example 58] | human orexin-2 receptor (Homo sapiens (Human), UniProt O43614) | 0.0139 |
| C[C@@H]1CC[C@@H](c2cc(C(C)(C)O)no2)CN1C(=O)c1cc(F)ccc1-n1nccn1 [Example 24] | human orexin-2 receptor (Homo sapiens (Human), UniProt O43614) | 0.215 |
| C[C@@H]1CC[C@@H](c2cc(C(C)(C)O)on2)CN1C(=O)c1cccnc1OCC(F)(F)F [Example 7] | human orexin-2 receptor (Homo sapiens (Human), UniProt O43614) | 0.227 |
